species on record: Rattus norvegicus; test: Open TG-GATES - Regimen: Daily Repeat; format: toxicity, organism-based, Sprague-Dawley; design: regimen Daily Repeat, gender Male, age 6 weeks; details: in vivo, po, 10 mg/kg, […], route gavage, dose level Low, time 28 day
reportedProperty: TERMINAL_BW
Just so you know, I need the unit written after the number.

| molecule | TERMINAL_BW |
| --- | --- |
| CC(C)OC(=O)C(C)(C)Oc1ccc(C(=O)c2ccc(Cl)cc2)cc1 [FENOFIBRATE] | 385.8 g |

Ask: Given CN(C)CCN(Cc1cccs1)c1ccccn1 , state its recorded TERMINAL_BW.
Reply: 353.5 g

Ask: Param item: CC1=C(/C=C/C(C)=C/C=C/C(C)=C/CO)C(C)(C)CCC1 [RETINOL]
Reply: 358.5 g

Ask: Param item: CN(C)CCCN1c2ccccc2CCc2ccccc21 [IMIPRAMINE]
Reply: 402.9 g

====

species on record: Rattus norvegicus; assay: Open TG-GATES - Regimen: Daily Repeat; type: toxicity, organism-based, Sprague-Dawley; set-up: regimen Daily Repeat, gender Male, age 6 weeks; conditions: in vivo, po, 100 mg/kg, […], tissue Liver, route gavage, dose level Low, time 28 day
reportedProperty: LIVER (g)
Use g as the unit, but write only the number.

Worked cases, LIVER given:
| molecule | reportedProperty | unitAbbrev | assayValue |
| --- | --- | --- | --- |
| CCOc1ccc(NC(=O)CC(C)O)cc1 (stereo not given) | LIVER | g | 16.3 |
| CCOC(=O)CCC(=O)O[C@H]1[C@H](O[C@@H]2[C@@H](C)[C@H](O[C@H]3C[C@@](C)(OC)[C@@H](O)[C@H](C)O3)[C@@H](C)C(=O)O[C@H](CC)[C@@](C)(O)[C@H](O)[C@@H](C)C(=O)[C@H](C)C[C@@]2(C)O)O[C@H](C)C[C@@H]1N(C)C [ERYTHROMYCIN ETHYLSUCCINATE] | LIVER | g | 16.2 |
| NC(N)=Nc1nc(CSCCC(N)=NS(N)(=O)=O)cs1 | LIVER | g | 15.7 |
| COc1ccc2[nH]c([S+]([O-])Cc3ncc(C)c(OC)c3C)nc2c1 (stereo not given) | LIVER | g | 16.4 |

Ask: Given COC1=CC(=O)C[C@@H](C)[C@]12Oc1c(Cl)c(OC)cc(OC)c1C2=O , state its recorded LIVER.
Reply: 16.7

====

species: Rattus norvegicus; assay: Open TG-GATES - Regimen: Single; format: toxicity, organism-based, Sprague-Dawley; design: regimen Single, gender Male, age 6 weeks; conditions: in vivo, po, 300 mg/kg, 9 h, tissue Plasma, route gavage, dose level Middle
In this section we review reported BUN values for a set of molecules.
Use mg/dL as the unit, but write only the number.

| molecule | reportedProperty | assayValue |
| --- | --- | --- |
| COC1=CC(=O)C[C@@H](C)[C@]12Oc1c(Cl)c(OC)cc(OC)c1C2=O | BUN | 11.4 |
| NC(N)=Nc1nc(CSCCC(N)=NS(N)(=O)=O)cs1 | BUN | 10 |
| CCOC(=O)CCC(=O)O[C@H]1[C@H](O[C@@H]2[C@@H](C)[C@H](O[C@H]3C[C@@](C)(OC)[C@@H](O)[C@H](C)O3)[C@@H](C)C(=O)O[C@H](CC)[C@@](C)(O)[C@H](O)[C@@H](C)C(=O)[C@H](C)C[C@@]2(C)O)O[C@H](C)C[C@@H]1N(C)C [ERYTHROMYCIN ETHYLSUCCINATE] | BUN | 10 |

Turning now to a further molecule:
Ask: Given COc1ccc2[nH]c([S+]([O-])Cc3ncc(C)c(OC)c3C)nc2c1 (centres undefined) , state its recorded BUN.
Reply: 8.2

====

In this section we review reported PT values for a set of compounds.
species on record: Rattus norvegicus; test: Open TG-GATES - Regimen: Single; format: toxicity, organism-based, Sprague-Dawley; design: regimen Single, gender Male, age 6 weeks; details: in vivo, po, 30 mg/kg, 9 h, tissue Blood, route gavage, dose level Middle
Just so you know, I need the unit written after the number.

| moleculeSmiles | PT |
| --- | --- |
| CN(C)CCN(Cc1cccs1)c1ccccn1 | 15.5 s |
| CN(C)CCCN1c2ccccc2CCc2ccc(Cl)cc21 | 13.8 s |
| CN(C)CCCN1c2ccccc2CCc2ccccc21 | 15.8 s |

Turning now to a further compound:
Ask: Given CC1=C(/C=C/C(C)=C/C=C/C(C)=C/CO)C(C)(C)CCC1 , state its recorded PT.
Reply: 15.5 s

====

organism: Rattus norvegicus; experiment: Open TG-GATES - Regimen: Daily Repeat; type: toxicity, organism-based, Sprague-Dawley; parameters: regimen Daily Repeat, gender Male, age 6 weeks; settings: in vivo, po, 0 mg/kg, […], tissue Plasma, route gavage, dose level Control, time 7 day
Tag: yes if measured GLC is not below 200 mg/dL, no if it is.

The following compounds have reported results that may help.
| compound | cat |
| --- | --- |
| CCOC(=O)CCC(=O)O[C@H]1[C@H](O[C@@H]2[C@@H](C)[C@H](O[C@H]3C[C@@](C)(OC)[C@@H](O)[C@H](C)O3)[C@@H](C)C(=O)O[C@H](CC)[C@@](C)(O)[C@H](O)[C@@H](C)C(=O)[C@H](C)C[C@@]2(C)O)O[C@H](C)C[C@@H]1N(C)C [ERYTHROMYCIN ETHYLSUCCINATE] | yes |
| CN1C(=O)CN=C(c2ccccc2)c2cc(Cl)ccc21 | no |
| CC(C)OC(=O)C(C)(C)Oc1ccc(C(=O)c2ccc(Cl)cc2)cc1 [FENOFIBRATE] | no |
| CC1=C(/C=C/C(C)=C/C=C/C(C)=C/CO)C(C)(C)CCC1 | no |
| CN(C)CCCN1c2ccccc2CCc2ccccc21 | no |

# ---- query compound ----
Ask: Tell me whether GLC is at least 200 mg/dL here: CCOc1ccc(NC(=O)CC(C)O)cc1 (stereo not drawn)
Reply: no

====

In this section we review reported Ht values for a set of compounds.
species on record: Rattus norvegicus; assay: Open TG-GATES - Regimen: Daily Repeat; type: toxicity, organism-based, Sprague-Dawley; parameters: regimen Daily Repeat, gender Male, age 6 weeks; conditions: in vivo, po, 1000 mg/kg, […], tissue Blood, route gavage, dose level High, time 7 day
Use % as the unit, but write only the number.

| compound | Ht, % |
| --- | --- |
| CCOC(=O)CCC(=O)O[C@H]1[C@H](O[C@@H]2[C@@H](C)[C@H](O[C@H]3C[C@@](C)(OC)[C@@H](O)[C@H](C)O3)[C@@H](C)C(=O)O[C@H](CC)[C@@](C)(O)[C@H](O)[C@@H](C)C(=O)[C@H](C)C[C@@]2(C)O)O[C@H](C)C[C@@H]1N(C)C [ERYTHROMYCIN ETHYLSUCCINATE] | 40.3 |
| NC(N)=Nc1nc(CSCCC(N)=NS(N)(=O)=O)cs1 | 38.2 |
| COC1=CC(=O)C[C@@H](C)[C@]12Oc1c(Cl)c(OC)cc(OC)c1C2=O | 38.9 |

Ask: Given CC(C)OC(=O)C(C)(C)Oc1ccc(C(=O)c2ccc(Cl)cc2)cc1 [FENOFIBRATE] , state its recorded Ht.
Reply: 39.1

Ask: Param item: COc1ccc2[nH]c([S+]([O-])Cc3ncc(C)c(OC)c3C)nc2c1 (stereo unspecified)
Reply: 34.9

Ask: Param item: CCOc1ccc(NC(=O)CC(C)O)cc1 (stereo unspecified)
Reply: 38.7

====

In this section we review reported AST values for a set of compounds.
species on record: Rattus norvegicus; assay: Open TG-GATES - Regimen: Single; format: toxicity, organism-based, Sprague-Dawley; set-up: regimen Single, gender Male, age 6 weeks; settings: in vivo, po, 100 mg/kg, 24 h, tissue Plasma, route gavage, dose level Low
Use IU/L as the unit, but write only the number.

Worked cases, AST given:
| compound | unitAbbrev | assayValue |
| --- | --- | --- |
| COC1=CC(=O)C[C@@H](C)[C@]12Oc1c(Cl)c(OC)cc(OC)c1C2=O | IU/L | 69.4 |
| NC(N)=Nc1nc(CSCCC(N)=NS(N)(=O)=O)cs1 | IU/L | 68.2 |
| COc1ccc2[nH]c([S+]([O-])Cc3ncc(C)c(OC)c3C)nc2c1 (centres undefined) | IU/L | 57.8 |

Turning now to a further compound:
Ask: Given CCOC(=O)CCC(=O)O[C@H]1[C@H](O[C@@H]2[C@@H](C)[C@H](O[C@H]3C[C@@](C)(OC)[C@@H](O)[C@H](C)O3)[C@@H](C)C(=O)O[C@H](CC)[C@@](C)(O)[C@H](O)[C@@H](C)C(=O)[C@H](C)C[C@@]2(C)O)O[C@H](C)C[C@@H]1N(C)C [ERYTHROMYCIN ETHYLSUCCINATE] , state its recorded AST.
Reply: 70.4
